Cited source for all entries: patent US8796268B2

- target desc: Human PI3K beta (Homo sapiens)
- Construct: His (N); host or cells: SF9 insect cells (baculovirus)
- experiment: Human PI3K beta enzyme assay (HTRF)
- Format: biochemical
- cond: concentration not given; b1387 states 1.1 μM for PI3K α and β; read-out: p110 beta Percent Inhibition
Each entry below carries its reported inhibition at 1.1 µM.
measurement type: inhibition at 1.1 µM (%)

1) CC(=O)Nc1cc(-c2cc(C(c3ccc(Cl)cc3)N3CCC[C@@H]3CO)c(-c3nnc[nH]3)s2)ccn1 (some centres unmarked) [Compound 268]
95
2) O=C(O)c1sc(N2CCOCC2)nc1Cc1cc2ccccc2cc1F [Compound 314]
109
3) CC(=O)Nc1cc(-c2cc(C(c3ccc(Cl)cc3)N3CCC(F)(F)CC3)c(-c3nnc[nH]3)s2)ccn1 (centres unmarked) [Compound 221]
94
4) COc1cc(C(O)c2cc(-c3ccncc3)sc2-c2ncn[nH]2)c(F)cc1Cl (centres unmarked) [Compound 186]
109
5) OC(c1cc(F)ccc1F)c1cc(-c2ccncc2)sc1-c1nnc[nH]1 (centres unmarked) [Compound 266]
90
6) OC(c1ccc(Br)cc1)c1cc(-c2ccncc2)sc1-c1nnc[nH]1 (centres unmarked) [Compound 231]
104
7) OC(c1cc(-c2ccncc2)sc1-c1nnc[nH]1)c1cccc(F)c1F (centres unmarked) [Compound 235]
101
8) N#Cc1c(N2CCOC(CO)C2)sc(C(=O)O)c1Cc1ccc2ccccc2c1 (centres unmarked) [Compound 297]
104

* * *

Each entry below carries its reported inhibition at 1 µM.
- target desc: Human PI3K gamma (Homo sapiens)
- Construct: His (N); host or cells: SF9 insect cells (baculovirus)
- experiment: Human PI3K gamma enzyme assay (HTRF)
- Type: biochemical
- cond: concentration not given; b1389 states 1.0 μM for PI3K δ and γ; read-out: p110 gamma Percent Inhibition
measurement type: inhibition at 1 µM

1. CC(=O)Nc1cc(-c2nc(C(O)c3ccc(Cl)cc3)c(-c3nnc[nH]3)s2)ccn1 (stereo not shown) [Compound 238]
11%
2. CC(=O)Nc1cc(-c2cc(C(c3ccc(Cl)cc3)N3CC(F)(F)C3)c(-c3nnc[nH]3)s2)ccn1 (stereo not shown) [Compound 216]
11%
3. OC(c1ccccc1F)c1cc(-c2ccncc2)sc1-c1nnc[nH]1 (stereo not shown) [Compound 155]
28%
4. Clc1ccc(Cc2nc(N3CCOCC3)sc2Cc2nnn[nH]2)cc1Cl [Compound 350]
3%

* * *

- target desc: Human PI3K gamma (Homo sapiens, UniProt P48736)
- Construct: His (N); host or cells: SF9 insect cells (baculovirus)
- Sequence (P48736 whole entry): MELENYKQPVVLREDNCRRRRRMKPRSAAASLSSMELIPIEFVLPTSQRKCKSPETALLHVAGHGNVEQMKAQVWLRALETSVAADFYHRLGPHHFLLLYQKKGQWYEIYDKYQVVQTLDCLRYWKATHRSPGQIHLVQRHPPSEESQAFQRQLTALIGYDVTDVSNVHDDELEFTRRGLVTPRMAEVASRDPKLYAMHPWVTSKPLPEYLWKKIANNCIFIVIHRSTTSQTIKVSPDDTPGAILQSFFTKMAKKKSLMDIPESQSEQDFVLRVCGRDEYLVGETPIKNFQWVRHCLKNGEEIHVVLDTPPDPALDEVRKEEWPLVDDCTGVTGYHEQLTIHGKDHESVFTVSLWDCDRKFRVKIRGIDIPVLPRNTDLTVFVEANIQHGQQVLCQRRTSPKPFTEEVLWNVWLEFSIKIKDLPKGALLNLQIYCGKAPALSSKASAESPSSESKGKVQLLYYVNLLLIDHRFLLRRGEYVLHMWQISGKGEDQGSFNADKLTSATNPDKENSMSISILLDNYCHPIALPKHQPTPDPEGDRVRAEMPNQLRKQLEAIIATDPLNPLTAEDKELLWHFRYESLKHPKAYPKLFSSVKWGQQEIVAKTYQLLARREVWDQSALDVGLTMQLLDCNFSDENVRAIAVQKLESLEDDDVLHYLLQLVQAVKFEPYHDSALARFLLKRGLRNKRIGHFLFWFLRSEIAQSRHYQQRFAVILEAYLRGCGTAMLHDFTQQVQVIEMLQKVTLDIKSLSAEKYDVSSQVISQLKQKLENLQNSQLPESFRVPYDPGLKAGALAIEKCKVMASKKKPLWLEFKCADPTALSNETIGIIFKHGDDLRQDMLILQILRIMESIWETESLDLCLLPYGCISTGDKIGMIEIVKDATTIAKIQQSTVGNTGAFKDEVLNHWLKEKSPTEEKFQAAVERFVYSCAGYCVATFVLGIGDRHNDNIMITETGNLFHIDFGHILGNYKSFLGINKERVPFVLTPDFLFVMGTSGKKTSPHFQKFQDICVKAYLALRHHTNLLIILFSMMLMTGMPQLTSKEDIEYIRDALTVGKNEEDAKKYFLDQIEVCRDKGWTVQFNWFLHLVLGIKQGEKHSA
- experiment: Human PI3K gamma enzyme assay (HTRF)
- Assay type: biochemical
- cond: concentration not given; b1389 states 1.0 μM for PI3K δ and γ; read-out: p110 gamma Percent Inhibition
measurement type: inhibition at 1 µM (%)

1. CC(=O)Nc1cc(-c2sc(-c3nnc[nH]3)c(S(=O)(=O)c3ccc(Cl)cc3)c2C#N)ccn1
62
2. CC(=O)Nc1cc(-c2cc(C(c3ccc(Cl)cc3)N3CC[C@@H](CO)C3)c(-c3nc[nH]n3)s2)ccn1 (stereo partly shown)
21
3. CN(C)C(c1ccc(Cl)cc1)c1c(C(=O)O)sc(N2CCOCC2)c1C#N (stereo not shown)
46
4. CC(=O)Nc1cc(-c2cc(C(c3ccc(Cl)cc3)N3CC4(COC4)C3)c(-c3nnc[nH]3)s2)ccn1 (stereo not shown)
21

* * *

- target desc: Human PI3K beta (Homo sapiens, UniProt P42338)
- Construct: His (N); host or cells: SF9 insect cells (baculovirus)
- Sequence (P42338 whole entry, one chain of several): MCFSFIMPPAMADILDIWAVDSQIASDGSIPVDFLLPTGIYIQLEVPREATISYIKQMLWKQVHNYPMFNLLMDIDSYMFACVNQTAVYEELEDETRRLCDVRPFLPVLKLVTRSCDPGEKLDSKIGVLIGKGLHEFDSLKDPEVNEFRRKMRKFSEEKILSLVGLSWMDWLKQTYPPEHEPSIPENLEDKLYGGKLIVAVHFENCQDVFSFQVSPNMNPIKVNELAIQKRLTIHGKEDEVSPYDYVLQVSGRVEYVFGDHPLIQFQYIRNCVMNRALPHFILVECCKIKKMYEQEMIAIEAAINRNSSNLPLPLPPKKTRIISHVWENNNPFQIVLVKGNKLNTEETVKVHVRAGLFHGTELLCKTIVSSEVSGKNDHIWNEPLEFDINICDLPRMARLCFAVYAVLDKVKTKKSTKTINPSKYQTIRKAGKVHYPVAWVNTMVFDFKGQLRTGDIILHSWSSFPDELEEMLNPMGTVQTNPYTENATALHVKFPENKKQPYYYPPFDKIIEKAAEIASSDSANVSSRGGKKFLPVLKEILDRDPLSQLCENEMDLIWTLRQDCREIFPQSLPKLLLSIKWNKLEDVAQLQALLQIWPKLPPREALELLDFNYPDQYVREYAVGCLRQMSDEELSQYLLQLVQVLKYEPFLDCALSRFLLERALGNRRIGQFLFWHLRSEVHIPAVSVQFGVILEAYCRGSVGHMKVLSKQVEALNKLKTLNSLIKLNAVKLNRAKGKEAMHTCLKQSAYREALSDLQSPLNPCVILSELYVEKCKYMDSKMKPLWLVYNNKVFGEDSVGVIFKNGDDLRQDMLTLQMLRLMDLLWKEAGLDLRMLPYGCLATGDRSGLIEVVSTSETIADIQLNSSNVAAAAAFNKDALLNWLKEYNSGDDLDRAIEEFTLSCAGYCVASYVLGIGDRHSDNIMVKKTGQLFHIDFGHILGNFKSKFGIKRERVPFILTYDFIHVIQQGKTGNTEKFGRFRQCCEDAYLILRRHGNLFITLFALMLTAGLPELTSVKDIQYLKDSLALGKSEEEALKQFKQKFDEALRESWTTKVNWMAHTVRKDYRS
- experiment: Human PI3K beta enzyme assay (HTRF)
- Format: biochemical
- cond: at a 1.1 μM concentration; read-out: PI3β Percent Inhibition
Each entry below carries its reported inhibition at 1.1 µM.
measurement type: inhibition at 1.1 µM (%)

1. N#Cc1c(N2CCOCC2)sc(C(=O)O)c1Cc1ccc(F)cc1
101
2. CC(c1ccc(Cl)cc1)c1nc(N2CCOCC2)sc1C(=O)O (stereo not drawn)
59
3. N#Cc1c(N2CCOCC2)sc(C(=O)O)c1Cc1c(F)cc(Cl)cc1F
103
4. N#Cc1c(C2=CCOCC2)sc(C(=O)O)c1Cc1ccc(Cl)cc1
101
5. N#Cc1c(N2CCOCC2)sc(C(=O)O)c1Cc1ccc(Cl)cc1F
105
6. N#Cc1c(N2CCOCC2)sc(C(=O)O)c1Cc1ccc(Cl)c(Cl)c1
109
7. O=C(O)c1sc(N2CCOCC2)nc1Cc1ccc(F)cc1
88
8. COc1cc(Cl)ccc1Cc1c(C(=O)O)sc(N2CCOCC2)c1C#N
99
9. COc1cc(Cc2c(C(=O)O)sc(N3CCOCC3)c2C#N)ccc1Cl
106

* * *

- target desc: Human PI3K delta (Homo sapiens)
- Construct: His (N); host or cells: SF9 insect cells (baculovirus)
- Sequence (O00329 whole entry): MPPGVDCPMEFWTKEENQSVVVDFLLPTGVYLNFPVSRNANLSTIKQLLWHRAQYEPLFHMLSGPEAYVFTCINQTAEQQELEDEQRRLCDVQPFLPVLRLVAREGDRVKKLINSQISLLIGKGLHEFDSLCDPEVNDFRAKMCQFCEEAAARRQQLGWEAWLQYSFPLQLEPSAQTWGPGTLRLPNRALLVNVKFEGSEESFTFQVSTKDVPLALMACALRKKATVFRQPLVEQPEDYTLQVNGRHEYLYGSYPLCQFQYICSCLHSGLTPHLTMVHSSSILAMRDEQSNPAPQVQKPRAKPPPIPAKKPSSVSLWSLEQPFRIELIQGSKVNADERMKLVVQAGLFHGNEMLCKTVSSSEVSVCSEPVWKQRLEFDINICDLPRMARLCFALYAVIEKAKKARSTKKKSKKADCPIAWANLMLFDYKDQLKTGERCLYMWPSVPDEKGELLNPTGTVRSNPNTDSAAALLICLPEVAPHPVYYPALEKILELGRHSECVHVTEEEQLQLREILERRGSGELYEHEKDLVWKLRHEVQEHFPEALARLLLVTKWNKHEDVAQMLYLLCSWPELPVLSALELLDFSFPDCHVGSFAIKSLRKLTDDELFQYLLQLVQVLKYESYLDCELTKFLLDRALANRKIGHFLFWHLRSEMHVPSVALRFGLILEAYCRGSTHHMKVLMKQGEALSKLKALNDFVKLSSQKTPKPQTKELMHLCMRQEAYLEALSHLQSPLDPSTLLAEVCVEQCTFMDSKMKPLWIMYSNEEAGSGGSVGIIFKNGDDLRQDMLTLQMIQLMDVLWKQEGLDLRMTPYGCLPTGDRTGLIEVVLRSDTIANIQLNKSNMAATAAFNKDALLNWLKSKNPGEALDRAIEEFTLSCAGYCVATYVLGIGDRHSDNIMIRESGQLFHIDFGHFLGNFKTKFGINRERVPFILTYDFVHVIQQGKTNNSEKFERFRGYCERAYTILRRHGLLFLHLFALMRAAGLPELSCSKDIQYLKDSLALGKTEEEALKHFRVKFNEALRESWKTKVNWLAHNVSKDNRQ
- Sequence (P27986 whole entry partner): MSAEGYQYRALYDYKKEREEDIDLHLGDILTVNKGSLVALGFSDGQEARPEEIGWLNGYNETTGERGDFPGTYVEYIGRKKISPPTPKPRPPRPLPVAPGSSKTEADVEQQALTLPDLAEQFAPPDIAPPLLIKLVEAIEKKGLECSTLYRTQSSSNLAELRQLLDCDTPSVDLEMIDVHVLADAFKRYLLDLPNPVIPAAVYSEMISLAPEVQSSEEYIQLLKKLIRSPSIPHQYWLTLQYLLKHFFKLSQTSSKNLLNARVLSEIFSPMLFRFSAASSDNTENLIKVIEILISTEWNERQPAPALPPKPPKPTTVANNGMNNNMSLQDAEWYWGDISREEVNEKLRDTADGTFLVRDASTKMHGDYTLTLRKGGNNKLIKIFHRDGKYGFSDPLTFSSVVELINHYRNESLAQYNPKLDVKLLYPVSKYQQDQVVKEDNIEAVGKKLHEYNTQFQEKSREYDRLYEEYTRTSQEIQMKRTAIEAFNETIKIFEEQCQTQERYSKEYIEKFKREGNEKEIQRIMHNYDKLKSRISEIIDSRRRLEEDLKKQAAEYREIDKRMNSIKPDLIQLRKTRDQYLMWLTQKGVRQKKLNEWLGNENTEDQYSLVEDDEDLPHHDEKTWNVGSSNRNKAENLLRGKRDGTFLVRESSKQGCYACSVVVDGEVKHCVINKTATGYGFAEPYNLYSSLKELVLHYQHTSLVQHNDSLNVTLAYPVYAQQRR
- experiment: Human PI3K delta enzyme assay (HTRF)
- Assay type: biochemical
- cond: concentration not given; b1389 states 1.0 μM for PI3K δ and γ; read-out: p110 delta Percent Inhibition
Decision: inhibition at 1 µM >= 90% yields criterion met, all other cases yield criterion not met.

1. O=C(O)c1sc(N2CCOCC2)c(C#Cc2ccccc2)c1Cc1ccc(Cl)c(Cl)c1
criterion met
2. N#Cc1c(N2CCOCC2)sc(C(N)=O)c1Cc1ccc2ccccc2c1
criterion met
3. N#Cc1c(-c2ccnnc2)sc(-c2nnc[nH]2)c1C(O)c1ccc2ccccc2c1 (stereo not drawn)
criterion not met
4. Cc1n[nH]c(C)c1-c1sc(-c2ccncc2)nc1Cc1ccc(Cl)cc1
criterion not met
5. CS(=O)(=O)NC(=O)c1sc(N2CCOCC2)c(C#N)c1Cc1ccc(Cl)c(Cl)c1
criterion not met
6. OC(c1ccc(Cl)cc1Cl)c1cc(-c2ccncc2)sc1-c1nnc[nH]1 (stereo not drawn)
criterion met
7. Clc1ccc(Cc2nc(-c3ccncc3)sc2-c2nnn[nH]2)cc1
criterion not met

* * *

- target desc: Human PI3K gamma (Homo sapiens)
- Construct: His (N); host or cells: SF9 insect cells (baculovirus)
- experiment: Human PI3K gamma enzyme assay (HTRF)
- Assay type: biochemical
- cond: concentration not given; b1389 states 1.0 μM for PI3K δ and γ; read-out: p110 gamma Percent Inhibition
measurement type: inhibition at 1 µM (%)

1) N#Cc1ccc2ccc(Cc3nc(N4CCOCC4)sc3C(=O)O)cc2c1
22
2) CC(=O)Nc1cc(-c2cc(C(NCC3CCCC3)c3ccc(Cl)cc3)c(-c3nnc[nH]3)s2)ccn1 (stereo not shown)
8
3) CC(=O)Nc1cc(-c2cc([C@@H](c3ccc(Cl)cc3)N3CCC3)c(-c3nnc[nH]3)s2)ccn1 (single isomer, unassigned)
35
4) OC(c1ccc(Cl)cc1)c1cc(-c2ccnc(Nc3ncco3)c2)sc1-c1nnc[nH]1 (stereo not shown)
18
5) CN(C)C(c1ccc(Cl)cc1)c1cc(-c2ccnc(N)c2)sc1-c1nnc[nH]1 (stereo not shown)
9
6) COC(c1ccc2ccccc2c1)c1c(C(=O)O)sc(N2CCOCC2)c1C#N (stereo not shown)
87
7) CC(=O)Nc1cc(-c2cc(C(c3ccc(Cl)cc3)N3CCN(CC(F)(F)F)CC3)c(-c3nnc[nH]3)s2)ccn1 (stereo not shown)
7

* * *

- target desc: Human PI3K alpha (Homo sapiens, UniProt P42336)
- Construct: His (N); host or cells: SF9 insect cells (baculovirus)
- Sequence (P42336 whole entry): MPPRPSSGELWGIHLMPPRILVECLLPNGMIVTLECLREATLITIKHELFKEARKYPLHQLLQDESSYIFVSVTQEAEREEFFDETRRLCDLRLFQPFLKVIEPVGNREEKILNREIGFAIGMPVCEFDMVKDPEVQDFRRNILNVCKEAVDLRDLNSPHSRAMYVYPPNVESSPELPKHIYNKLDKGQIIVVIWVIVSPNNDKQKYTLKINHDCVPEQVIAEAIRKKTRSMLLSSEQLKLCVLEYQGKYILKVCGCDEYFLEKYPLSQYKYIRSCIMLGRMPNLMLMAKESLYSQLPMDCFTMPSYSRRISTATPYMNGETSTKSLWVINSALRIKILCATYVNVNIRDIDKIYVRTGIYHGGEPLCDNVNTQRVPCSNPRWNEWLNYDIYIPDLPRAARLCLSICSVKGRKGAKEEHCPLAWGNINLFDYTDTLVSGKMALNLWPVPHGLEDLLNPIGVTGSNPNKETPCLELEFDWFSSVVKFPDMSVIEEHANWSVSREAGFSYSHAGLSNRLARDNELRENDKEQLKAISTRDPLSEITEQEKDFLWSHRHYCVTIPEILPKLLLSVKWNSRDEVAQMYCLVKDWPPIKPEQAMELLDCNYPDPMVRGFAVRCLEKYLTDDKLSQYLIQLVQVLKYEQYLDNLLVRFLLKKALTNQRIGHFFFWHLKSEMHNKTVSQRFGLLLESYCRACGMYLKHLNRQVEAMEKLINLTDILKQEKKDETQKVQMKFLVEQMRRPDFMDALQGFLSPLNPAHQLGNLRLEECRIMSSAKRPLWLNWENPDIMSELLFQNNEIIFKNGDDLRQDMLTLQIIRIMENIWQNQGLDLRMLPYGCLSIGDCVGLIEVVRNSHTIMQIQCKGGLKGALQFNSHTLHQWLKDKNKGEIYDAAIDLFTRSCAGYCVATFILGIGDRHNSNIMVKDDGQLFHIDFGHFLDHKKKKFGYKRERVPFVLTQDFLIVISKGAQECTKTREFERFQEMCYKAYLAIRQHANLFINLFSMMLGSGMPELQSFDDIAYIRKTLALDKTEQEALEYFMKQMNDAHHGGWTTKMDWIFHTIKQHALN
- Sequence (P27986 whole entry partner): as the sequence (P27986 whole entry partner) above
- experiment: Human PI3K alpha enzyme assay (HTRF)
- Assay type: biochemical
- cond: concentration not given; b1387 states 1.1 μM for PI3K α and β
measurement type: p110 alpha Percent Inhibition (%)

1) CC(=O)Nc1cc(-c2cc(C(c3ccc(Cl)cc3)N3CCC[C@H]3CO)c(-c3nnc[nH]3)s2)ccn1 (single isomer, unassigned) [Compound 259]
69
2) N#Cc1c(N2CCOCC2)sc(C(=O)O)c1C(F)c1ccc2ccccc2c1 (centres unmarked) [Compound 364]
88
3) CC(=O)Nc1cc(-c2cc(C(c3ccc(Cl)cc3)N3CCC[C@H]3CO)c(-c3nnc[nH]3)s2)ccn1 (single isomer, unassigned) [Compound 192]
48
4) CC(=O)Nc1cc(-c2cc(C(c3ccc(Cl)cc3)N(C)C3CNC3)c(-c3nnc[nH]3)s2)ccn1 (centres unmarked)
95
5) OC(c1cc(-c2ccncc2)sc1-c1nnc[nH]1)c1c(F)ccc2ccccc12 (centres unmarked) [Compound 203]
10
6) N#Cc1c(N2CCOCC2)sc(C(=O)O)c1C(CCO)c1ccc2ccccc2c1 (centres unmarked) [Compound 363]
99
7) CN(C)C(c1ccc(Cl)c(Cl)c1)c1c(C(=O)O)sc(N2CCOCC2)c1C#N (centres unmarked) [Compound 336]
16
8) CC(=O)Nc1cc(-c2cc(C(c3ccc(Cl)cc3)N3CC(N(C)C)C3)c(-c3nnc[nH]3)s2)ccn1 (centres unmarked) [Compound 181]
85
9) OC(c1ccc2ccccc2c1)c1cc(-c2ccncc2)sc1-c1nnc[nH]1 (centres unmarked)
42
10) OC(c1cc(-c2ccncc2)sc1-c1nnc[nH]1)c1c(F)ccc2ccccc12 (centres unmarked) [Compound 281]
52
11) c1ccc2cc(Cc3nc(N4CCOCC4)sc3-c3nnn[nH]3)ccc2c1
30
12) COc1cc(C(O)c2cc(-c3ccnc(C)c3)sc2-c2nnc[nH]2)c(F)cc1Cl (centres unmarked) [Compound 265]
64
13) CC(=O)Nc1cc(-c2cc(C(c3ccc(Cl)cc3)N3CC(N(C)C)C3)c(-c3nnc[nH]3)s2)ccn1 (centres unmarked) [Compound 144]
63
14) COc1cc(C(O)c2cc(-c3ccnc(Cl)c3)sc2-c2nnc[nH]2)c(F)cc1Cl (centres unmarked) [Compound 278]
23
15) COc1cc(C(O)c2cc(-c3ccnc(Cl)c3)sc2-c2nnc[nH]2)c(F)cc1Cl (centres unmarked) [Compound 149]
54
16) N#Cc1c(N2CCOCC2)sc(C(=O)O)c1C(F)c1ccc2ccccc2c1 (centres unmarked) [Compound 345]
64
17) CC(c1ccc2cc(F)ccc2c1)c1c(C(=O)O)sc(N2CCOCC2)c1C#N (centres unmarked) [Compound 326]
79
18) COc1cc(C(O)c2cc(-c3ccnc(C)c3)sc2-c2nnc[nH]2)c(F)cc1Cl (centres unmarked) [Compound 285]
16
19) N#Cc1c(N2CCOCC2)sc(C(=O)O)c1C(CCF)c1ccc2ccccc2c1 (centres unmarked) [Compound 322]
64
20) N#Cc1c(N2CCOCC2)sc(C(=O)O)c1C(CCF)c1ccc2ccccc2c1 (centres unmarked) [Compound 365]
105
21) CN(C)C(c1ccc(Cl)c(Cl)c1)c1c(C(=O)O)sc(N2CCOCC2)c1C#N (centres unmarked) [Compound 362]
80
22) CC(c1ccc2cc(F)ccc2c1)c1c(C(=O)O)sc(N2CCOCC2)c1C#N (centres unmarked) [Compound 369]
109
23) OC(c1cc2ccccc2cc1F)c1cc(-c2ccncc2)sc1-c1nnc[nH]1 (centres unmarked) [Compound 284]
39
24) N#Cc1c(N2CCOCC2)sc(C(=O)O)c1C(CCO)c1ccc2ccccc2c1 (centres unmarked) [Compound 313]
73
25) OC(c1cc2ccccc2cc1F)c1cc(-c2ccncc2)sc1-c1nnc[nH]1 (centres unmarked) [Compound 136]
80
26) CC(c1ccc(Cl)c(Cl)c1)c1c(C(=O)O)sc(N2CCOCC2)c1C#N (centres unmarked)
66
27) CC(=O)Nc1cc(-c2cc(C(c3ccc(Cl)cc3)N3CCC[C@@H]3CO)c(-c3nnc[nH]3)s2)ccn1 (single isomer, unassigned)
96
28) NCc1c[nH]c(-c2sc(-c3ccncc3)nc2Cc2ccc(Cl)cc2)n1
0
29) COc1cc(C(O)c2cc(-c3ccnnc3)sc2-c2nnc[nH]2)c(F)cc1Cl (centres unmarked)
23
